Kindly supply the reported ELISA OD450 values for the records listed here.
- system_under_test: T1, Mouse VSIG4-His (mouse)
- T1 construct: ECD with His tag; also called mVSIG4
- T1 chain: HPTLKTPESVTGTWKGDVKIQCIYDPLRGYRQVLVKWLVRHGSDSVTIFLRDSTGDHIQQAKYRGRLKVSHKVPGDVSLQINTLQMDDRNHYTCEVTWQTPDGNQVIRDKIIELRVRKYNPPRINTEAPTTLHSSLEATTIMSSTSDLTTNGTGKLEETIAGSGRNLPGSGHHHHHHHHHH
- assay_protocol: ELISA, IgG 50 nM on coated antigen;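 also: Mouse-human chimeric IgG4 antibodies incubated 1 h on plate-coated VSIG4 proteins, bound IgG detected with HRP-labelled anti-human IgG, irrelevant antibody and protein as specificity controls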

Request: Which measured ELISA OD450 value corresponds to 13H11 mouse/human chimeric IgG4 (S228P) kappa (antibody, V domains shown) VH: QIQLVQSGPELKKPGETVKISCKASGYTFENFGMNWVKQAPGKGLKWMGWINTYTGEATYADDFKGRFAFSLETSASTAYLQINNLKNEDTATYFCARDGGFRHFDVWGAGTTVTVSS VL: ETTVTQSPASLSVATGEKVTIRCITSTDIDDDMNWYQQKPGEPPKLLISEGNTLRPGVPSRFSSSGYGTDFVFTIENMLSEDVADYYCLQSDNLPLTFGAGTKLELKR ?
Response: 0.048 OD450

Request: Requested field: ELISA OD450. Item: 14D12 mouse/human chimeric IgG4 (S228P) kappa (antibody, V domains shown) VH: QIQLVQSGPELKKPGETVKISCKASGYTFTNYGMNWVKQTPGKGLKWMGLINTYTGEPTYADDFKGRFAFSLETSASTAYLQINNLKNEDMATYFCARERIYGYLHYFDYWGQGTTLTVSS VL: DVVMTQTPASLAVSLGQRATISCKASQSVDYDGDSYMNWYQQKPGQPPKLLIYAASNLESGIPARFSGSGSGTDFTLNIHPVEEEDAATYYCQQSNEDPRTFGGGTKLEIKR
Response: 0.05 OD450

Request: Entry 16E03 mouse/human chimeric IgG4 (S228P) kappa (antibody, V domains shown) VH: QVQLQQSGAELARPGASVKMSCKASGYTFTSYTMHWIKQRPGQGLEWIGYINPSSGHTYYNQKFKDKATLTPDKSSSTAYMQLTSLTSEDSAVYYCARRIPTAYAMDYWGQGTSVTVSS VL: EIQMTQSHKFMSTSVGDRVSITCKASQDVGTAVAWYQQKPGQSPKLLIYWASTRHTGVPDRFTGSGSGTDFTLTISNVQSEDLADYFCQQYSSYPLTFGAGTKLELKR has what ELISA OD450?
Response: 0.054 OD450
